TESTED_TARGET: T1, TRCW5 antigen (CD3δε-Fc-Avi) (biotinylated (site not stated))
T1 construct: also called recombinant CD3
T1 sequence (chain, as listed by the source mutant limits assumed): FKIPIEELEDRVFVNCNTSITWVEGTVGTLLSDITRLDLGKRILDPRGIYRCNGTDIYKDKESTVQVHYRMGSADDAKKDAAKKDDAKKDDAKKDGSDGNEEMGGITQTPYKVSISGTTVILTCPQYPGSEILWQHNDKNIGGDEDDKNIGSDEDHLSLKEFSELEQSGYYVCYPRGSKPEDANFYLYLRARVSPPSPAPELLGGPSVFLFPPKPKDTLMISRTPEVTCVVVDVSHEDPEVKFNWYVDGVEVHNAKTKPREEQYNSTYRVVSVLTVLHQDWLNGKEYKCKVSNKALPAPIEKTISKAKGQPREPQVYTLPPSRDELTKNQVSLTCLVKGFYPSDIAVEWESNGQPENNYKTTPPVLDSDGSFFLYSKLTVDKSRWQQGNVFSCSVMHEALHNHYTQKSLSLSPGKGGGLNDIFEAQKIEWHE
MEASUREMENT_NOTES: ELISA
PROPERTY_NAME: EC50 (nM)
Give the value, in units of nM, as a plain number.

CD3B2051 N106E (scFv) scFv: QVQLVQSGAEVKKPGSSVKVSCKASGYTFTRSTMHWVKQAPGQGLEWMGYINPSSAYTNYNQKFQGRVTLTADKSTSTAYMELSSLRSEDTAVYYCASPQVHYDYEGFPYWGQGTLVTVSSGGSEGKSSGSGSESKSTGGSEIVLTQSPATLSASPGERVTLSCSASSSVSYMNWYQQKPGQAPRRLIYDSSKLASGVPARFSGSGSGRDYTLTISSLEPEDFAVYYCQQWSRNPPTFGGGTKVEIK yielded EC50 of 8.05
